Data credit: ChEMBL document CHEMBL4411302

PROTOCOL_DESCRIPTION: Cytotoxicity against human CEM-T4 cells assessed as reduction in cell viability after 7 days by MTT assay
Type: cell-based
MEASUREMENT_PARAMETERS: CEM-T4 cells
Form field: CC50 at 168 h (one value per entry).

MOLECULE: Cc1cn([C@H]2C[C@H](N=[N+]=[N-])[C@@H](COP(=O)(Nc3ccncc3)Oc3ccccn3)O2)c(=O)[nH]c1=O (some centres not stated)
CC50 at 168 h: > 50 µM
--
MOLECULE: Cc1cn([C@H]2C[C@H](N=[N+]=[N-])[C@@H](COP(=O)(Nc3ccccc3)Oc3cccnc3)O2)c(=O)[nH]c1=O (some centres not stated)
CC50 at 168 h: 360 µM
--
MOLECULE: Cc1cn([C@H]2C[C@H](N=[N+]=[N-])[C@@H](COP(=O)(Nc3ccncc3)Oc3ccccc3)O2)c(=O)[nH]c1=O (some centres not stated)
CC50 at 168 h: > 400 µM
--
MOLECULE: O=c1ccn([C@H]2CC[C@@H](COP(=O)(Nc3cccnc3)Oc3cccnc3)O2)c(=O)[nH]1 (some centres not stated)
CC50 at 168 h: > 200 µM
--
MOLECULE: Cc1cn([C@H]2C[C@H](N=[N+]=[N-])[C@@H](COP(=O)(Nc3cccnc3)Oc3ccccc3)O2)c(=O)[nH]c1=O (some centres not stated)
CC50 at 168 h: > 400 µM
--
MOLECULE: Cc1cn([C@H]2C[C@H](N=[N+]=[N-])[C@@H](COP(=O)(Nc3ccncc3)Oc3cccnc3)O2)c(=O)[nH]c1=O (some centres not stated)
CC50 at 168 h: > 50 µM
--
MOLECULE: Cc1cn([C@H]2C[C@H](N=[N+]=[N-])[C@@H](COP(=O)(Nc3cccnc3)Oc3ccccn3)O2)c(=O)[nH]c1=O (some centres not stated)
CC50 at 168 h: > 200 µM
--
MOLECULE: Cc1cn([C@H]2C[C@H](N=[N+]=[N-])[C@@H](COP(=O)(Nc3cccnc3)Oc3cccnc3)O2)c(=O)[nH]c1=O (some centres not stated)
CC50 at 168 h: > 200 µM
--
MOLECULE: Cc1cn([C@H]2C[C@H](N=[N+]=[N-])[C@@H](COP(=O)(Nc3ccccc3)Oc3ccccn3)O2)c(=O)[nH]c1=O (some centres not stated)
CC50 at 168 h: > 22 µM
--
MOLECULE: Cc1cn([C@H]2C[C@H](N=[N+]=[N-])[C@@H](COP(=O)(Nc3ccccc3)Oc3ccccc3)O2)c(=O)[nH]c1=O (some centres not stated)
CC50 at 168 h: > 66.8 µM

Value of CC50 at 168 h reported for the molecule O=c1ccn([C@H]2CC[C@@H](COP(=O)(Nc3ccccc3)Oc3cccnc3)O2)c(=O)[nH]1 (some centres not stated) is 225 µM

So for O=c1ccn([C@H]2CC[C@@H](COP(=O)(Nc3cccnc3)Oc3ccccc3)O2)c(=O)[nH]1 (some centres not stated) , the logged CC50 at 168 h turned out to be 225 µM

###

PROTOCOL_DESCRIPTION: Half life of the compound in RPMI media at 37 degC
Assay type: physicochemical
MEASUREMENT_PARAMETERS: RPMI media
Readings of half-life for the listed compounds
Lab book: enter the figure in h, no units written.

COMPOUND: Cc1cn([C@H]2C[C@H](N=[N+]=[N-])[C@@H](COP(=O)(Nc3ccccc3)Oc3cccnc3)O2)c(=O)[nH]c1=O (stereo partly specified)
MEASURED_PROPERTY: half-life
UNIT: h
QUANTITATIVE_RESULT: 82

COMPOUND: O=c1ccn([C@H]2CC[C@@H](COP(=O)(Nc3cccnc3)Oc3cccnc3)O2)c(=O)[nH]1 (stereo partly specified)
MEASURED_PROPERTY: half-life
UNIT: h
QUANTITATIVE_RESULT: 20

COMPOUND: O=c1ccn([C@H]2CC[C@@H](COP(=O)(Nc3ccccc3)Oc3cccnc3)O2)c(=O)[nH]1 (stereo partly specified)
MEASURED_PROPERTY: half-life
UNIT: h
QUANTITATIVE_RESULT: 120

COMPOUND: Cc1cn([C@H]2C[C@H](N=[N+]=[N-])[C@@H](COP(=O)(Nc3ccncc3)Oc3ccccc3)O2)c(=O)[nH]c1=O (stereo partly specified)
MEASURED_PROPERTY: half-life
UNIT: h
QUANTITATIVE_RESULT: 192

COMPOUND: Cc1cn([C@H]2C[C@H](N=[N+]=[N-])[C@@H](COP(=O)(Nc3cccnc3)Oc3ccccn3)O2)c(=O)[nH]c1=O (stereo partly specified)
MEASURED_PROPERTY: half-life
UNIT: h
QUANTITATIVE_RESULT: 33

Kindly note the recorded half-life for Cc1cn([C@H]2C[C@H](N=[N+]=[N-])[C@@H](COP(=O)(Nc3cccnc3)Oc3ccccc3)O2)c(=O)[nH]c1=O (stereo partly specified) , which is 168

Item: Cc1cn([C@H]2C[C@H](N=[N+]=[N-])[C@@H](COP(=O)(Nc3cccnc3)Oc3cccnc3)O2)c(=O)[nH]c1=O (stereo partly specified) | half-life: 27

###

selectivity ratio overview
PROTOCOL_DESCRIPTION: Selectivity index, ratio of CC50 for human CEM-T4 cells to EC50 for HIV1 infected in human CEM-T4 cells
Format: toxicity, cell-based
MEASUREMENT_PARAMETERS: read-out: Ratio CC50/EC50

Worked examples, 3 compounds total:
COMPOUND: Cc1cn([C@H]2C[C@H](N=[N+]=[N-])[C@@H](COP(=O)(Nc3cccnc3)Oc3ccccc3)O2)c(=O)[nH]c1=O (stereo partly drawn)
selectivity ratio: > 11400
//
COMPOUND: Cc1cn([C@H]2C[C@H](N=[N+]=[N-])[C@@H](COP(=O)(Nc3ccncc3)Oc3ccccc3)O2)c(=O)[nH]c1=O (stereo partly drawn)
selectivity ratio: > 8000
//
COMPOUND: Cc1cn([C@H]2C[C@H](N=[N+]=[N-])[C@@H](COP(=O)(Nc3cccnc3)Oc3cccnc3)O2)c(=O)[nH]c1=O (stereo partly drawn)
selectivity ratio: > 10000

Briefly, selectivity ratio measured for O=c1ccn([C@H]2CC[C@@H](COP(=O)(Nc3cccnc3)Oc3cccnc3)O2)c(=O)[nH]1 (stereo partly drawn) : > 364

The recorded selectivity ratio for entry O=c1ccn([C@H]2CC[C@@H](COP(=O)(Nc3cccnc3)Oc3ccccc3)O2)c(=O)[nH]1 (stereo partly drawn) equals < 7.5

Input Cc1cn([C@H]2C[C@H](N=[N+]=[N-])[C@@H](COP(=O)(Nc3ccncc3)Oc3ccccn3)O2)c(=O)[nH]c1=O (stereo partly drawn) . Output selectivity ratio: > 250

// Cc1cn([C@H]2C[C@H](N=[N+]=[N-])[C@@H](COP(=O)(Nc3ccccc3)Oc3ccccn3)O2)c(=O)[nH]c1=O (stereo partly drawn) : selectivity ratio value = > 1830

In plain terms, O=c1ccn([C@H]2CC[C@@H](COP(=O)(Nc3ccccc3)Oc3cccnc3)O2)c(=O)[nH]1 (stereo partly drawn) has a documented selectivity ratio of 31

###

In this section we review reported half-life values for a set of molecules.
PROTOCOL_DESCRIPTION: Half life of the compound in RPMI media at 37 degC
Format: physicochemical
MEASUREMENT_PARAMETERS: RPMI media
Dear colleague, please return just the value in h, with no unit written.

MOLECULE: O=c1ccn([C@H]2CC[C@@H](COP(=O)(Nc3cccnc3)Oc3ccccc3)O2)c(=O)[nH]1 (some centres undefined)
half-life (h): 168

Looking up Cc1cn([C@H]2C[C@H](N=[N+]=[N-])[C@@H](COP(=O)(Nc3ccncc3)Oc3ccccn3)O2)c(=O)[nH]c1=O (some centres undefined) , I found its half-life recorded as 120

Briefly, half-life measured for Cc1cn([C@H]2C[C@H](N=[N+]=[N-])[C@@H](COP(=O)(Nc3ccccc3)Oc3ccccn3)O2)c(=O)[nH]c1=O (some centres undefined) : 45

Short answer for Cc1cn([C@H]2C[C@H](N=[N+]=[N-])[C@@H](COP(=O)(Nc3ccncc3)Oc3cccnc3)O2)c(=O)[nH]c1=O (some centres undefined) : half-life was 105
